# Assay comment: Solubility of azido sugar in production medium
# Type: physicochemical
# Study conditions: production medium supplemented with galactose (30 g/L), aqueous buffer; read-out: limit of solubility
Measured endpoint: solubility

Input CC(=O)OC[C@H]1OC(OC(C)=O)[C@H](N=[N+]=[N-])[C@@H](OC(C)=O)[C@@H]1OC(C)=O (stereo partly shown) [2AzGlcAc4] . Output solubility: ≤ 1000 µM
